target: ternary complex CRBN/PROTAC/METTL3–14 (Homo sapiens, UniProt Q86U44+Q96SW2); construct: methyltransferase domains (MTD) of METTL3 (residues 354–580); His6 (N, cleaved yes); made in house; host or cells: METTL3-MTD/METTL14-MTD: baculovirus/Sf9; CRBN-TBD: E. coli Rosetta (DE3), co-expressed with BirA; assay: FRET-based ternary complex formation assay (TCFA); assay type: binding; settings: PROTAC concentration at the maximum of the signal in the TCFA
Sequence (Q86U44 354-580): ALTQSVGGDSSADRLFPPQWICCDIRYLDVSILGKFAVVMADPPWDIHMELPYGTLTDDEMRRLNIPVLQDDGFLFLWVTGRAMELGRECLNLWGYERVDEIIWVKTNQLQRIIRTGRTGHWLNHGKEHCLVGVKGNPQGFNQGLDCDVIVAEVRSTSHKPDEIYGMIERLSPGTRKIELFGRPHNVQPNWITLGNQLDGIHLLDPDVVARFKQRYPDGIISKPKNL
Sequence (Q9HCE5 107-395 partner limits assumed): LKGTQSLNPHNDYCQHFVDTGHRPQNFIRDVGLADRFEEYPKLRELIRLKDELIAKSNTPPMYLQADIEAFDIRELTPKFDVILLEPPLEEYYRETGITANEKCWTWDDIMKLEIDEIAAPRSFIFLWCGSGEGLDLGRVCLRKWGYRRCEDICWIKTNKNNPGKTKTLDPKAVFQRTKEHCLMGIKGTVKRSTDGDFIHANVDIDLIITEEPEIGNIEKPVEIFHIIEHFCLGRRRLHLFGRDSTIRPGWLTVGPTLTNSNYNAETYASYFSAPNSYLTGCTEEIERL
Sequence (Q96SW2 318-442): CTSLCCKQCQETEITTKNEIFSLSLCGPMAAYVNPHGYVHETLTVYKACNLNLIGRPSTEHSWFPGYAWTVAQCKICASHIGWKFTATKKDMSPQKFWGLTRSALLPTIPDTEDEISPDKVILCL
attribute-measured: ECmax (nM) ± SD

The examples below pair each entry with its known result.
molecule: CC1(C)CCN(Cc2cc(F)c(N3CC(=O)NC4(CCN(c5cc(NCCN6CCN(c7cccc8c7C(=O)N(C7CCC(=O)NC7=O)C8=O)CC6)ncn5)CC4)C3)cc2F)CC1 (centres unmarked)
target-system: ternary complex CRBN/PROTAC/METTL3–14 (Homo sapiens, UniProt Q86U44+Q96SW2)
attribute-measured: ECmax (nM) ± SD
reading: – ^b

molecule: CC1(C)CCN(Cc2ccc(N3CC(=O)NC4(CCN(c5cc(NCCCNC(=O)CCOCCOCCOCCOCCNc6cccc7c6C(=O)N(C6CCC(=O)NC6=O)C7=O)ncn5)CC4)C3)cc2)CC1 (centres unmarked)
target-system: ternary complex CRBN/PROTAC/METTL3–14 (Homo sapiens, UniProt Q86U44+Q96SW2)
attribute-measured: ECmax (nM) ± SD
reading: 1900 (n = 1) nM

molecule: CC1(C)CCN(Cc2cc(F)c(N3CC(=O)NC4(CCN(c5cc(NCc6cccc(CNC(=O)CCCCCCCCCCNc7cccc8c7CN(C7CCC(=O)NC7=O)C8=O)c6)ncn5)CC4)C3)cc2F)CC1 (centres unmarked)
target-system: ternary complex CRBN/PROTAC/METTL3–14 (Homo sapiens, UniProt Q86U44+Q96SW2)
attribute-measured: ECmax (nM) ± SD
reading: 920 ± 160 nM

molecule: CC1(C)CCN(Cc2ccc(N3CC(=O)NC4(CCN(c5cc(NCCCNC(=O)CCOCCOCCNc6cccc7c6C(=O)N(C6CCC(=O)NC6=O)C7=O)ncn5)CC4)C3)cc2)CC1 (centres unmarked)
target-system: ternary complex CRBN/PROTAC/METTL3–14 (Homo sapiens, UniProt Q86U44+Q96SW2)
attribute-measured: ECmax (nM) ± SD
reading: 6800 (n = 1) nM

molecule: CC1(C)CCN(Cc2ccc(N3CC(=O)NC4(CCN(c5cc(NCCCNC(=O)CCCCCCCCCCNc6cccc7c6CN(C6CCC(=O)NC6=O)C7=O)ncn5)CC4)C3)cc2)CC1 (centres unmarked)
target-system: ternary complex CRBN/PROTAC/METTL3–14 (Homo sapiens, UniProt Q86U44+Q96SW2)
attribute-measured: ECmax (nM) ± SD
reading: 3600 (n = 1) nM

molecule: CC1(C)CCN(Cc2cc(F)c(N3CC(=O)NC4(CCN(c5cc(NCCCNC(=O)CCCCCCCCCCNc6cccc7c6CN(C6CCC(=O)NC6=O)C7=O)ncn5)CC4)C3)cc2F)CC1 (centres unmarked)
target-system: ternary complex CRBN/PROTAC/METTL3–14 (Homo sapiens, UniProt Q86U44+Q96SW2)
attribute-measured: ECmax (nM) ± SD
reading: 910 ± 40 nM

molecule: CC1(C)CCN(Cc2ccc(N3CC(=O)NC4(CCN(c5cc(NCCCNC(=O)CCCCCCCCCCn6cc(CNc7cccc8c7C(=O)N(C7CCC(=O)NC7=O)C8=O)nn6)ncn5)CC4)C3)cc2)CC1 (centres unmarked)
target-system: ternary complex CRBN/PROTAC/METTL3–14 (Homo sapiens, UniProt Q86U44+Q96SW2)
attribute-measured: ECmax (nM) ± SD
reading: 2200 (n = 1) nM

CC1(C)CCN(Cc2cc(F)c(N3CC(=O)NC4(CCN(c5cc(NCc6cccc(CNC(=O)CCCCCCCCn7cc(CNc8cccc9c8C(=O)N(C8CCC(=O)NC8=O)C9=O)nn7)c6)ncn5)CC4)C3)cc2F)CC1 (centres unmarked) has a reported ECmax (nM) ± SD of 920 ± 150 nM
